Recorded Δkd (fold) for the following binders
- target: T1, Recombinant human EGFR-Fc (aa 1-645 of the extracellular domain of human EGFR fused to human Fc) (human, UniProt P00533 25-645)
- T1 construct: range 1-645; bought from R&D Systems; also called EGFR645-Fc; EGFR-Fc (HER-1); not shown: human Fc
- assay info: SPR Biacore, EGFR645-Fc; against I1-GS10-E5 Pegylated
Express the result in fold but write the number alone.

Check out these entries, answers already filled in.
Enquiry: Query Δkd (fold) for I1(S91C)-GS10-E5 pegylated (designed binder, PEG on Cys at position 91 of I1 (position of SEQ ID NO: 1), also called I1(S91C)-GS10-E5(7)) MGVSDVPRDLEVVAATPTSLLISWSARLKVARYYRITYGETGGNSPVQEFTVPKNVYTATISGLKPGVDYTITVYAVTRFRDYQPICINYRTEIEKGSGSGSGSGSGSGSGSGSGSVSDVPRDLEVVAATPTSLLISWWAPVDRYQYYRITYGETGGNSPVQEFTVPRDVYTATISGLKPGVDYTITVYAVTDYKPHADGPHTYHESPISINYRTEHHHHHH
Return: 0.2

Enquiry: Query Δkd (fold) for I1-GS10-E5(S62C) pegylated (designed binder, PEG on Cys at position 62 of E5 (position of SEQ ID NO: 1), also called I1-GS10-E5(S62C)(6)) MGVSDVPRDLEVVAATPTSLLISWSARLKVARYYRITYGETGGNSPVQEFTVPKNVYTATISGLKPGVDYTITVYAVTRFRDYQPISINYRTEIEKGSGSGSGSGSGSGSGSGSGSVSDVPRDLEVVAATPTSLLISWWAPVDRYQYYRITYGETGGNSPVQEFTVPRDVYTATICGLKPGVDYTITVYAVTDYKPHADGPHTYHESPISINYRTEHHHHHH
Return: 2.4

Further cases:
Enquiry: Query Δkd (fold) for I1-GS10-E5(S91C) pegylated (designed binder, PEG on Cys at position 91 of E5 (position of SEQ ID NO: 1), also called I1-GS10-E5(S91C)(8)) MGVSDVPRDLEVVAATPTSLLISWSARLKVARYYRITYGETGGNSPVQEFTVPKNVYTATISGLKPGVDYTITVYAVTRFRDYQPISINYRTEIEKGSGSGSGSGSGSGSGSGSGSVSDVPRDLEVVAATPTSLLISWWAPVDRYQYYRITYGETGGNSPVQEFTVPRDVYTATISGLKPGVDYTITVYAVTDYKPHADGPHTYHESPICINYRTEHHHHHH
Return: 0.4
